Format: physicochemical
Parameters: key: 1 = fibrils present; 0 non-fibrillar structures
EXPERIMENTAL_CONDITIONS: TEM; 1 = fibrils present, 0 = non-fibrillar
EXPERIMENTAL_READOUT: Fibril
Answers are plain numbers.

Examples from the recorded data:
KFKFQFNM; 1
KIRGKFEKED; 0
KFKFQFNMWQ; 1

Batch lookup, Fibril per entry.
1. QCKAKAQANM
2. EIEIEIEI
3. HHHHKAKAKAKAYYYY
4. KIKIQIW

1: 0; 2: 1; 3: 0; 4: 1

----------
Exercise: state measured Number of aggregates in 3 * (1330 µm *1330 µm) for each of the substances provided.
ASSAY_INFO: Aggregate analysis by widefield fluorescence microscopy
Type: physicochemical
EXPERIMENTAL_CONDITIONS: Fig S8 panels B, D; widefield fluorescence microscopy, 3 fields of 1330 µm x 1330 µm
Numbers only.

Examples from the recorded data:
CQFQFQF [QBL4]; 45.67
KIKQIINMWQ [JG2]; 39
KIKIQIC [TM112 / CN11]; 81.67
HHHHKIKIKIKIWWWW [TM4]; 445.7
KIKQIIN [JGA3]; 11.67
KWKWQW [KB3]; 27.67

Batch lookup, Number of aggregates in 3 * (1330 µm *1330 µm) per entry.
1. QCKAKAQA [CK24]
2. CKAKAQANMWQ [BL8]
3. CKFKQFF [CK15]
4. QCKFKQFFNMWQ [CK10]
5. HIHIQIC [CN12]
6. RGDSGGGGGGKIKIQIC [TM114 / RC17]
7. CHLHLQL [CN9]

0
6.333
5.667
1814
33.33
72
36

Batch lookup, Number of aggregates in 3 * (1330 µm *1330 µm) per entry.
1. QCKIKIQINMWQ [EF-C opt]
2. QCKIKQIINMWQ [reference compound]
3. KFKFQFNMWQ [JG4]
4. CKFKFQF [BL4]
5. HHHHKIKIQINMYYYY [TM16]
6. CSISIQI [TM141]

1. 398
2. 408
3. 64
4. 128.3
5. 233.7
6. 123.3

----------
ASSAY_INFO: β-sheet content by ATR-FT-IR
Assay type: physicochemical
Decide by FTIR ß-sheet content/ %: equal to or exceeding 50% means satisfied, less means not satisfied.

CKIKQIINM [BL1]; not satisfied
CKFKFQFNMWQ [BL2]; not satisfied
KIKQIINM [JGA2]; not satisfied

Consider the additional sequence presented here.
Is the recorded value of FTIR ß-sheet content/ % equal to or greater than 50% for this sequence? CKFKQFFNMWQ [CK13]
satisfied

----------
System: HIV-1 infection of TZM-bl cells
ASSAY_INFO: HIV-1 infectivity enhancement assay, β-galactosidase luminescence
Format: cell-based
EXPERIMENTAL_CONDITIONS: log10 of infection relative to EF-C, Figure 6C
Decide by Log10 Infection Rel EF-C: equal to or exceeding -0.3 means Fulfilled, less means Not fulfilled.

Worked examples follow.
CRLSLSLS; Not fulfilled
KIWIWIW; Fulfilled
CRLRVGVS; Not fulfilled
CKFKFPF; Not fulfilled
CRFRFHFH; Fulfilled

Is the recorded value of Log10 Infection Rel EF-C equal to or greater than -0.3 for this substance? KCQCQCQ
Fulfilled

Is the recorded value of Log10 Infection Rel EF-C equal to or greater than -0.3 for this substance? KLKLTLT
Not fulfilled

----------
ASSAY_INFO: Conversion rate (CR) assay with fluorescamine
Assay type: physicochemical
EXPERIMENTAL_CONDITIONS: conversion of monomer to nanostructures; 3 kDa MWCO filtration, fluorescamine, ex 365 / em 470 nm, triplicate
Exercise: state measured CR / % for each of the sequences provided.

CKAKAQANMWQ; 92%
KAKAQANMWQ; 56%
QCKAKAQANM; 56%
CKAKAQANM; 48%

Note down CR / % recorded for QCKAKAQANMWQ
89%

----------
ASSAY_INFO: Conversion rate (CR) assay with fluorescamine
Type: physicochemical
EXPERIMENTAL_CONDITIONS: fluorescamine assay
Exercise: state measured Conversion Rate / % for each of the substances provided.
Give bare numbers, in %.

Examples from the recorded data:
CKFKFQF [BL4]; 96.11
RGDCKFKFQF [TM64/ CN15]; 85.47
CKIKIQINM [MG2]; 79
CKAKAQANMWQ [BL8]; 92.9
KIKIQINMWQ [JG1]; 95.68

Batch lookup, Conversion Rate / % per entry.
1. KFKFQFNMWQ [JG4]
2. RGDKIKIQINM [MG8a / CN17]
3. KFKFQFNM [BL6a]

1. 98.32
2. 73.83
3. 98.53

Batch lookup, Conversion Rate / % per entry.
1. QCKFKQFFNM [CK11]
2. QCKIKQIINMWQ [reference compound]
3. QCKIKIQINMWQ [EF-C opt]
4. KFKFQF [JJA6]
5. MKFKFQF [DF5 / CK16]

[98.67, 76.98, 93.68, 51.79, 98.72]

Batch lookup, Conversion Rate / % per entry.
1. CRFRVPF [CN8]
2. KAKAQA [JJA2 / TM153]
3. CKFKFQFNM [BL3]
4. KIKIQI [JJA4]
5. CEIEIQINMWQ [TM143]
6. CRFRFQF [CN10]
7. KAKAQANMWQ [JG3]
8. CKIKIQINMWQ [MG1]

1. 97.05
2. 0.3138
3. 99.03
4. 32.82
5. 59.9
6. 98.13
7. 47.47
8. 91.29

Batch lookup, Conversion Rate / % per entry.
1. QCKFKFQFNM [CK8]
2. KFKFQFFF [TG12]
3. HLHLPLL [CN14]
4. HHHHKIKIQINMYYYY [TM16]
5. KIKQII [msis21]

1. 98.94
2. 97.92
3. 37.51
4. 98.42
5. 19.94

----------
Test system: HIV-1 infection of TZM-bl cells
ASSAY_INFO: HIV-1 infectivity enhancement assay, β-galactosidase luminescence
Format: cell-based
EXPERIMENTAL_CONDITIONS: Feb2021 run; log10 of infectivity relative to EF-C
Exercise: state measured Log10 of Rel to EFC (Feb2021) for each of the substances provided.
Give bare numbers.

CKFKQFFNMWQ [CK13]; -0.2148

Batch lookup, Log10 of Rel to EFC (Feb2021) per entry.
1. CKIKQII [MG4a]
2. KFKFQF [JJA6]
3. CKIKQIINM [BL1]
4. QCKFKQFFNM [CK11]
5. KIKIQIII [TG7]

1: -1.379; 2: -1.213; 3: -0.3035; 4: -0.3706; 5: -0.452

Batch lookup, Log10 of Rel to EFC (Feb2021) per entry.
1. CKIKQIINMWQ [MG5a / CK17]
2. CKIKIQI [MG3b]
3. RGDKIKIQI [MG14]
4. CKAKAQANMWQ [BL8]
5. CKIKIQIII [AR0 / F19]
6. QCKFKQFF [CK12]
7. KIKIQINMWWWQ [VH12]
8. KIKIQINM [JGB2]

0.09484
0.008101
-1.805
-1.359
-0.01045
-1.907
0.4391
-0.4404

Batch lookup, Log10 of Rel to EFC (Feb2021) per entry.
1. RGDKIKIQINMWQ [MG9a]
2. KFKFQFFF [TG12]
3. KAKAQA [JJA2 / TM153]
4. RGDKIKIQIC [MG7/CN1]

1: -0.1175; 2: -0.3937; 3: -1.743; 4: -0.07993

Batch lookup, Log10 of Rel to EFC (Feb2021) per entry.
1. MKIKIQINMWQ [TM52]
2. KIKIQINMW [JGB1 /TM85]
3. QCKIKQIINMWQ [reference compound]
4. CKFKFQFNM [BL3]

[-0.378, 0.3339, 0, 0.09417]

----------
Type: physicochemical
EXPERIMENTAL_CONDITIONS: ThT fluorescence relative to blank (42.1851851851852 a.u.)
EXPERIMENTAL_READOUT: Tht rel to blank (42.1851851851852)

Batch lookup, Tht rel to blank (42.1851851851852) per entry.
1. QCKFKQFF [CK12]
2. CKIKQII [MG4a]
3. KFKFQF [JJA6]
4. KFKFQFNM [BL6a]

[2.349, 3.914, 1.156, 1.202]

----------
Assay type: physicochemical
EXPERIMENTAL_CONDITIONS: relative to blank 42.1851851851852 a.u.
Output yes (1) for records whose Tht rel to blank (42.1851851851852) is lower than 4, no (0) for records at or above 4.

Worked examples follow.
QCKFKFQFNM [CK8]; yes (1)
KIKIQINMWQ [JG1]; no (0)
KIKIQINMWWWQ [VH12]; yes (1)

Is Tht rel to blank (42.1851851851852) strictly under 4 for the entry QCKIKIQINMWQ [EF-C opt] ?
no (0)

Is Tht rel to blank (42.1851851851852) strictly under 4 for the entry QCKFKFQF [CK9] ?
yes (1)
